- subjectOfTest: CYP2J2 (Homo sapiens, UniProt P51589)
- Sequence (P51589 1-502): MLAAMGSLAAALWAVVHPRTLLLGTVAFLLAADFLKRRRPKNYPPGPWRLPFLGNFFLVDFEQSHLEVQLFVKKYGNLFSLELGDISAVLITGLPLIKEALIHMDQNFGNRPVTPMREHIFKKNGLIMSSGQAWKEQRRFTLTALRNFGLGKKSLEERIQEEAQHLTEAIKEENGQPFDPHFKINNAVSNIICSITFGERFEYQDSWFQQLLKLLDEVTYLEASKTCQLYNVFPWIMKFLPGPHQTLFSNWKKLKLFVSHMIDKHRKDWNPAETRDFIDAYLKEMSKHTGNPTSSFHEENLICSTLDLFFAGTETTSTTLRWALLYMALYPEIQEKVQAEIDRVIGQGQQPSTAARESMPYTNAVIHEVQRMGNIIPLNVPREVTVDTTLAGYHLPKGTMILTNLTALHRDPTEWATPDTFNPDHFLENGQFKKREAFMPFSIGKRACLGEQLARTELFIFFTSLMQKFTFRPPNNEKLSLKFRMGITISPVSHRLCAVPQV
- Assay type: binding
Quick reference: pKd of the listed items.
// pKd: -log10(molar conc.)

{"compound": "COc1cccc2c1C(=O)c1c(O)c3c(c(O)c1C2=O)CC(O)(C(=O)CO)CC3 (centres unmarked)", "pKd": 4.88}

Request the reported pKd associated with COc1cccc2c1C(=O)c1c(O)c3c(c(O)c1C2=O)C[C@@](O)(C(=O)CO)C[C@@H]3O[C@H]1C[C@H](N)[C@H](O)[C@H](C)O1
5.27

====

Entries and their pKi values follow.
- subjectOfTest: CYP2J2 (Homo sapiens, UniProt P51589)
- Sequence (P51589 1-502): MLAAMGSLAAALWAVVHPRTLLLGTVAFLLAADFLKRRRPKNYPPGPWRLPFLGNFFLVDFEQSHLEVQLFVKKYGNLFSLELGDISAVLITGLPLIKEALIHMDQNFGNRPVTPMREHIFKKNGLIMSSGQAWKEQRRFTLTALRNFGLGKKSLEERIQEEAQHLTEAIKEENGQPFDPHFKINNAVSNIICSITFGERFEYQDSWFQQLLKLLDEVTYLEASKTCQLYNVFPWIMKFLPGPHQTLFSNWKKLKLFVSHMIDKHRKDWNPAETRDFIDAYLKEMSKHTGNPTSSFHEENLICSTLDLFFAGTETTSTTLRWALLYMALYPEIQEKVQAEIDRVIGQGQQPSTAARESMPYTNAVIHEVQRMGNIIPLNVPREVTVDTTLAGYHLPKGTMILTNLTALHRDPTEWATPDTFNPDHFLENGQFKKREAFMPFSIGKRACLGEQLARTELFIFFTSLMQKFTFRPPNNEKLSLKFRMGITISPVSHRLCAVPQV
- assayRemarks: biochemical
Field pKi (float): negative decimal logarithm of the concentration in molar.

{"compound": "COc1cccc2c1C(=O)c1c(O)c3c(c(O)c1C2=O)C[C@@](O)(C(=O)CO)C[C@@H]3O[C@H]1C[C@H](N)[C@H](O)[C@H](C)O1 [DOX, doxorubicin]", "pKi": 5.51}
{"compound": "COc1cccc2c1C(=O)c1c(O)c3c(c(O)c1C2=O)CC(O)(C(=O)CO)CC3 (stereo not shown) [7-de-aDOX, 7-deoxydoxorubicin aglycone]", "pKi": 5.24}

# pKi lookup, item COc1cccc2c1C(=N)c1c(O)c3c(c(O)c1C2=O)C[C@@](O)(C(C)=O)C[C@@H]3O[C@H]1C[C@H](N)[C@H](O)[C@H](C)O1 [5-IDN, 5-iminodaunorubicin]
4.81

Can you share its pKi? I mean this compound: COc1cccc2c1C(=O)c1c(O)c3c(c(O)c1C2=O)C[C@@](O)(/C(C)=N/NC(=O)c1ccccc1)C[C@@H]3O[C@H]1C[C@H](N)[C@H](O)[C@H](C)O1 [ZRN, zorubicin]
5.44

====

Listed here: items and their measured pIC50.
- subjectOfTest: CYP2J2 (Homo sapiens)
- assayRemarks: biochemical
Please treat pIC50 as minus the base-10 logarithm of the molar concentration.

Worked set:
{"compound": "COc1cccc2c1C(=O)c1c(O)c3c(c(O)c1C2=O)C[C@@](O)(/C(C)=N/NC(=O)c1ccccc1)C[C@@H]3O[C@H]1C[C@H](N)[C@H](O)[C@H](C)O1 [ZRN, zorubicin]", "quantitativeResult": 5.19}
{"compound": "COc1cccc2c1C(=N)c1c(O)c3c(c(O)c1C2=O)C[C@@](O)(C(C)=O)C[C@@H]3O[C@H]1C[C@H](N)[C@H](O)[C@H](C)O1 [5-IDN, 5-iminodaunorubicin]", "quantitativeResult": 4.56}
{"compound": "COc1cccc2c1C(=O)c1c(O)c3c(c(O)c1C2=O)CC(O)(C(=O)CO)CC3 (stereo not shown) [7-de-aDOX, 7-deoxydoxorubicin aglycone]", "quantitativeResult": 4.99}

Now take the following compound into account.
Reported pIC50, compound COc1cccc2c1C(=O)c1c(O)c3c(c(O)c1C2=O)C[C@@](O)(C(=O)CO)C[C@@H]3O[C@H]1C[C@H](N)[C@H](O)[C@H](C)O1 [DOX, doxorubicin] : ____
5.26
